target: Recombinant human hepsin (4776-SE-010, R&D Systems), activated (human) (UniProt P05981)
*: point of attachment. ketothiazole = C-terminal ketothiazole (kt), c1csc(*)n1; kt = C-terminal ketothiazole, c1csc(*)n1
quantity_kind: IC50 of enzyme inhibition

binder: Ac-RQLR-kt (SMILES CC(=O)N[C@@H](CCCNC(=N)N)C(=O)N[C@@H](CCC(N)=O)C(=O)N[C@@H](CC(C)C)C(=O)N[C@@H](CCCNC(=N)N)C(=O)c1nccs1) [Ac-RQLR(SEQ ID NO: 6)-kt]
result: 1 nM

binder: Ac-WRLR-kt (SMILES CC(=O)N[C@@H](Cc1c[nH]c2ccccc12)C(=O)N[C@@H](CCCNC(=N)N)C(=O)N[C@@H](CC(C)C)C(=O)N[C@@H](CCCNC(=N)N)C(=O)c1nccs1) [Ac-WRLR(SEQ ID NO: 9)-kt]
result: 0.3 nM

binder: Ac-KFLR-ketothiazole (SMILES CC(=O)N[C@@H](CCCCN)C(=O)N[C@@H](Cc1ccccc1)C(=O)N[C@@H](CC(C)C)C(=O)N[C@@H](CCCNC(=N)N)C(=O)c1nccs1) [Ac-KFLR(SEQ ID NO: 5)-kt]
result: 22 nM

binder: Ac-KRLR-kt (SMILES CC(=O)N[C@@H](CCCCN)C(=O)N[C@@H](CCCNC(=N)N)C(=O)N[C@@H](CC(C)C)C(=O)N[C@@H](CCCNC(=N)N)C(=O)c1nccs1) [Ac-KRLR(SEQ ID NO: 8)-kt]
result: 5 nM
